Target: T1, human mesotrypsin (catalytically active) (human, UniProt P35030 81-304)
T1 sequence (looked up): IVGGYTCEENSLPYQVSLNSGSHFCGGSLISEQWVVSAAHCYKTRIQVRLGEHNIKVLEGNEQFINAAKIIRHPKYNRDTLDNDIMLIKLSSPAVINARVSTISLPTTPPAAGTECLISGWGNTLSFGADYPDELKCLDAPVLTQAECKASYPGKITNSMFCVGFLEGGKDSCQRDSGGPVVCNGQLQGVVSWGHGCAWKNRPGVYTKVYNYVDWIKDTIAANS
Assay: cell-based or functional assay
measured parameter: Kcat (1/s), proteolytic resistance (s⁻¹)

- binder: "APPIT11C/M17G/I18F/F34C (SEQ ID NO: 11), soluble (designed binder, not shown: AvrII site residues and C-terminal HIS6 tag) EVCSEQAECGPCRAGFSRWYFDVTEGKCAPFCYGGCGGNRNNFDTEEYCMAVCGSAI"
  reading: 0.00521
- binder: "APPIM17G/I18F/K29L/F34V (SEQ ID NO: 10), soluble (designed binder, not shown: AvrII site residues and C-terminal HIS6 tag) EVCSEQAETGPCRAGFSRWYFDVTEGLCAPFVYGGCGGNRNNFDTEEYCMAVCGSAI"
  reading: 0.000535
- binder: "APPIM17C/I18F/F34C (SEQ ID NO: 12), soluble (designed binder, not shown: AvrII site residues and C-terminal HIS6 tag) EVCSEQAETGPCRACFSRWYFDVTEGKCAPFCYGGCGGNRNNFDTEEYCMAVCGSAI"
  reading: 0.00038
- binder: "APPIT11V/M17G/I18F/F34V (SEQ ID NO: 9), soluble (designed binder, not shown: AvrII site residues and C-terminal HIS6 tag) EVCSEQAEVGPCRAGFSRWYFDVTEGKCAPFVYGGCGGNRNNFDTEEYCMAVCGSAI"
  reading: 0.000347

src = patent US20180362616A1
